Provenance of the data: ChEMBL document CHEMBL1136440

assay.system: Peroxisome proliferator-activated receptor gamma (Homo sapiens)
Sequence (P37231 whole entry): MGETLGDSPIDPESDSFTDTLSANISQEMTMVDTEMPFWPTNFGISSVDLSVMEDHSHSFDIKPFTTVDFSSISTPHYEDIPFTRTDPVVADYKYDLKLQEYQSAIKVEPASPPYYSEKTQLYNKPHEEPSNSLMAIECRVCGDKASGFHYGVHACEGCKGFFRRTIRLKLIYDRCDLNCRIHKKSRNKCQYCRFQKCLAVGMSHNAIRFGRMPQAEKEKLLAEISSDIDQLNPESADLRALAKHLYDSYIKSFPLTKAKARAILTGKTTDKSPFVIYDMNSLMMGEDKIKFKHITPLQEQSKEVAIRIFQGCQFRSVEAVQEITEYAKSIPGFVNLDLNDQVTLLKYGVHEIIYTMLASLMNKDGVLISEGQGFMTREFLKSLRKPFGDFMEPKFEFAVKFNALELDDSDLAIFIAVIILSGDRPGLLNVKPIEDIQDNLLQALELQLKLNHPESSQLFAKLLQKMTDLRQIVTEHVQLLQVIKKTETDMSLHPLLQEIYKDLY
recorded.endpoint: pEC50
pEC50 here is simply -log10 of the concentration when that concentration is written in mol/L.

Some solved cases for reference:
C/C(=C/C=C/C(C)=C/C(=O)O)c1cc(-c2ccccc2F)cc(C(C)C)c1OCC(F)F | 7.34
CC(/C=C/[C@@H]1C[C@]1(C)c1ccc2c(c1)C(C)(C)CCC2(C)C)=C\C(=O)O | 7.27
CCCOc1c(\C(C)=C/C=C/C(C)=C/C(=O)O)cc(C(F)(F)C(F)(F)F)cc1C(C)C | 7.23

Field: next compound
What reported pEC50 corresponds to `CCC(C)(C)c1cc(\C(C)=C(F)/C=C/C(C)=C/C(=O)O)c(OCC(F)F)c(C(C)(C)CC)c1` on Peroxisome proliferator-activated receptor gamma (Homo sapiens)?
7.29

====

Readings of Ki for the listed molecules
assay.system: UniProt:P13631
Sequence (P13631 whole entry): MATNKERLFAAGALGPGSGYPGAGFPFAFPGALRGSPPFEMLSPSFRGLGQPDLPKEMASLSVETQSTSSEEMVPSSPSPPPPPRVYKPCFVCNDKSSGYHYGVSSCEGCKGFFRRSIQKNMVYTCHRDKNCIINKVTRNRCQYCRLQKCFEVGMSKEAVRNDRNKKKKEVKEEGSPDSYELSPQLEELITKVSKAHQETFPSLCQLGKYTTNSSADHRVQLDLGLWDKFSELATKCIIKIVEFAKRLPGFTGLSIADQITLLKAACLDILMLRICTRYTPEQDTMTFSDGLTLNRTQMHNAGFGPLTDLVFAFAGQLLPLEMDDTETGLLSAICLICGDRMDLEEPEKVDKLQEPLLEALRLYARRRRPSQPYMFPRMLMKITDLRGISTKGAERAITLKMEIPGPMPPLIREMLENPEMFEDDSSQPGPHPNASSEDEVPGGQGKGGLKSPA
experiment.description: Binding affinity against RAR gamma receptor using [3H]ATRA as radioligand in CV-1 cells
Type: cell-based, Cercopithecidae

Recorded Ki, per entry:
C/C(=C/C=C/C(C)=C/C(=O)O)c1cc(-c2cccs2)cc(C(C)C)c1OCC(F)F | > 10 µM
C/C(=C/C=C/C(C)=C/C(=O)O)c1cc(-c2cccc(F)c2)cc(C(C)C)c1OCC(F)F | > 10 µM

Endpoint output: Ki of `C/C(=C/C=C/C(C)=C/C(=O)O)c1cc(C(C)(C)C)cc(C(C)(C)C)c1OCC(F)F` . Value?
> 9.51 µM

Which Ki value belongs to `C/C(=C/C=C/C(C)=C/C(=O)O)c1cc(-c2cc(F)cc(F)c2)cc(C(C)C)c1OCC(F)F` ?
> 10 µM

Reported Ki for `CC(/C=C/C(F)=C(/C)c1cc(C(C)(C)C)cc(C(C)(C)C)c1OCC(F)F)=C\C(=O)O` : what is it?
> 10 µM

What value of Ki has been reported for the following molecule? `C/C(=C/C=C/C(C)=C/C(=O)O)c1cc(-c2ccccc2F)cc(C(C)C)c1OCC(F)F`
8.76 µM

Data request, read-out Ki, for `CCCCOc1c(\C(C)=C/C=C/C(C)=C/C(=O)O)cc(C(F)(F)C(F)(F)F)cc1C(C)C`
> 10 µM

So what does the record say about Ki for `CCOc1c(\C(C)=C/C=C/C(C)=C/C(=O)O)cc(C(F)(F)C(F)(F)F)cc1C(C)C` ?
> 10 µM
